Measure: melting point (°C)
Please reply with the bare figure in °C and do not write the unit itself.

> print(dat)
                                   molecule  unit.abbrev  readout.number
1                  N#CCc1ccc(OCc2ccccc2)cc1           °C              68
2  C=C1C(=O)C23C4CC5C(C)(C)CCCC56COC(CC1C2OC(C)(C)O4)C63 (stereo not drawn)           °C             163
3         CNC(=O)COC1CCN(C(=O)OC(C)(C)C)CC1           °C              95

Using known records, supply melting point for `CC(=O)NC(=O)c1ccccc1O`
148

Using known records, supply melting point for `Cc1ccc(-c2nc3ccc(C)cn3c2CC(=O)N(C)C)cc1`
196

Using known records, supply melting point for `N#Cc1cc(Br)c(O)c(Br)c1`
190

Using known records, supply melting point for CC(CC(C)(C)O)OC(O)C(Cl)(Cl)Cl (stereo not drawn)
103

Using known records, supply melting point for CCC(C)c1cc([N+](=O)[O-])cc([N+](=O)[O-])c1OC(=O)C=C(C)C (stereo not drawn)
70

---

Measure: melting point (°C)
Please reply with the bare figure in °C and do not write the unit itself.

> print(dat)
           compound        measure  readout.number
1  N#Cc1ccc(N)cc1Cl  melting point             118

Using known records, supply melting point for CCC(CO)NC(=O)C1C=C2c3cccc4c3c(cn4C)CC2N(C)C1 (stereo not given)
195

---

The entries below come with measured melting point values attached.

Example cases with answers are listed next.
> print(dat)
                         compound         result
1  CSc1nc(-c2ccc(C)cc2)nc(N)c1C#N  213 to 214 °C
2          Cn1ccc(-c2ccc(N)cc2)n1  125 to 132 °C
3               Nc1ccccc1-n1cccc1    94 to 98 °C

Turning to the following compound.
Using known records, supply melting point for `Clc1ccc(-c2cn3c(n2)sc2ccccc23)cc1`
158 to 160 °C

---

The entries below come with measured melting point values attached.

> print(dat)
                                   molecule         result
1                     N#Cc1ccnc(N2CCCCC2)c1    55 to 57 °C
2                    COC(=O)c1scc(C)c1N=C=S    58 to 60 °C
3   O=S(=O)(c1ccc(N=C=S)cc1)c1ccc(N=C=S)cc1  187 to 189 °C
4     c1ccc(C2CCCNC2)cc1 (stereo not drawn)        14.5 °C
5       COc1ccccc1N/N=C(\C#N)c1nc2ccccc2n1C  200 to 202 °C
6  CC1CN2CC(=O)Nc3ccc(Cl)cc3C2(c2ccccc2)O1 (stereo not drawn)         186 °C
7                          NC1(C(=O)O)CCCC1  320 to 322 °C

Turning to the following molecule.
Using known records, supply melting point for `O=C1Nc2c(Br)cccc2C1=O`
199 to 200 °C

---

Measure: melting point

> print(dat)
             test.smiles        measure  result
1  CC(=O)c1cc(F)cc(Cl)c1  melting point   53 °C

Using known records, supply melting point for `O=C(O)c1cc(F)c(F)c(F)c1F`
88 to 89 °C

---

Measure: melting point

Using known records, supply melting point for `CCC(=N\NC(N)=O)/C(C)=N\NC(N)=O`
244 to 245 °C

Using known records, supply melting point for `COc1ccc2c(CCN)c[nH]c2c1`
143 to 146 °C

Using known records, supply melting point for CC(CC/C(=N/O)C(C)C)CC(=O)O (stereo not drawn)
186 to 187 °C

Using known records, supply melting point for `Fc1cc(F)c(F)c(-c2c(F)c(F)cc(F)c2F)c1F`
85 °C

Using known records, supply melting point for `O=C(NN=C1CCCCC1)C(=O)NN=C1CCCCC1`
210 °C

Using known records, supply melting point for `Brc1ccc(Br)nc1`
94 °C

Using known records, supply melting point for `O=C(CBr)c1ccc(-c2ccsc2)cc1`
113 to 115 °C

---

The entries below come with measured melting point values attached.

Using known records, supply melting point for OCC(O)CC(F)(F)C(F)(F)C(F)(F)C(F)(F)C(F)(F)C(F)(F)C(F)(F)C(F)(F)F (stereo not drawn)
114 to 116 °C

Using known records, supply melting point for `Cc1cc2c(ccc3nonc32)nn1`
167 to 169 °C

Using known records, supply melting point for `Cn1nc(C(=O)Cl)cc1-c1ccccc1`
80 to 82 °C

---

Measure: melting point

Example cases with answers are listed next.
> print(dat)
                                test.smiles         result
1               O=C(C=Cc1cccc(O)c1)c1ccccc1  156 to 158 °C
2                  FC(F)(F)c1ccc(Cl)c(Br)c1  -23 to -22 °C
3  Clc1ccc(C=Nc2n[nH]c(N=Cc3ccc(Cl)cc3)c2Cc2ccc(Cl)cc2)cc1  228 to 230 °C
4                          OCc1cccc2c1OCCO2    54 to 55 °C
5             O=CNc1ccc(Cl)cc1C(=O)c1ccccc1    89 to 91 °C

Turning to the following compound.
Using known records, supply melting point for `O=[N+]([O-])C=Cc1ccc2c(c1)OCO2`
159 to 163 °C

---

The entries below come with measured melting point values attached.

> print(dat)
                            test.smiles         result
1  CC1=C(c2ccccc2)c2ccccc2/C1=N/NC(N)=O  200 to 201 °C
2                Nc1sccc1-c1nc2ccccc2s1  138 to 140 °C

Using known records, supply melting point for `N#Cc1cc(Cl)nc(Cl)c1`
96 to 97 °C

---

Measure: melting point

> print(dat)
                                   molecule        measure         result
1   NC(=S)C1COc2ccccc2O1 (stereo not drawn)  melting point  180 to 183 °C
2  CC(C)(C)OC(=O)N1CCC(Oc2ccccc2[N+](=O)[O-])CC1  melting point    91 to 93 °C

Turning to the following molecule.
Using known records, supply melting point for `Cn1nc(C(F)(F)F)cc1-c1ccc(S(=O)(=O)Cl)s1`
68 to 70 °C

---

Measure: melting point

> print(dat)
                           compound       result
1  O=Cc1ccc(-c2ccc(OC(F)(F)F)cc2)o1  87 to 88 °C

Using known records, supply melting point for CC(C(C#N)C(N)=O)C(C#N)C(N)=O (stereo not given)
151 to 160 °C

Using known records, supply melting point for `CCN(CCO)S(=O)(=O)C(F)(F)C(F)(F)C(F)(F)C(F)(F)C(F)(F)C(F)(F)C(F)(F)C(F)(F)F`
55 to 60 °C

Using known records, supply melting point for O=C1CC2C(CC(OC(=O)c3ccc(-c4ccccc4)cc3)C2CO)O1 (single isomer, unassigned; (-))
128 to 134 °C

Using known records, supply melting point for `CCOC(=O)C1CCN(Cc2cccc(N)c2)CC1`
42 to 46 °C

---

Measure: melting point

> print(dat)
                                   compound        measure         result
1                    COC(=O)c1cc2ccsc2[nH]1  melting point  127 to 129 °C
2  CC1(C)OC2C(=O)OC(CBr)C2O1 (centres undefined)  melting point    85 to 89 °C
3  O=[N+]([O-])c1ccc(NN=CC2=C(/C=C/c3ccccc3)CCCC2)c([N+](=O)[O-])c1  melting point  261 to 262 °C

Using known records, supply melting point for `Cc1ccc(P(=S)(c2ccc(C)cc2)c2ccc(C)cc2)cc1`
185 to 186 °C

---

The entries below come with measured melting point values attached.

Example cases with answers are listed next.
> print(dat)
                                   molecule         result
1  CCSC(SCC)C(OC(C)=O)C(OC(C)=O)C(OC(C)=O)C(COC(C)=O)OC(C)=O (stereo not drawn)  111 to 112 °C
2            c1ccc2c(c1)-c1ccccc1C2c1ccncc1  142 to 145 °C
3                         Cc1nc2ccc(I)cc2s1  134 to 137 °C
4  O=C(NCCCC[C@H](NC(=O)OCc1ccccc1)C(=O)O)OCC1c2ccccc2-c2ccccc21  101 to 105 °C
5                           Brc1ccc2sccc2c1    47 to 48 °C

Turning to the following molecule.
Using known records, supply melting point for `O=C(O)c1cnon1`
102 to 104 °C
